# Protocol notes: Protein binding in guinea pig plasma at 10 uM after 5 hrs by equilibrium dialysis based LC-MS/MS analysis
# Assay type: ADME, cell-free, Cavia porcellus
# Test settings: read-out: PPB (converted)
Endpoint name: fraction unbound at 5 h, 10 µM
Please reply with the value in numeric form only.

// worked examples, fraction unbound at 5 h, 10 µM included
Smiles code: Cn1c(Nc2c(F)cccc2Cl)nc2cc(C(=O)Nc3ccc(C(F)(F)F)cn3)c3c(c21)CC(C)(C)O3
fraction unbound at 5 h, 10 µM: 0.0035
//
Smiles code: Cn1c(Nc2c(F)cccc2Cl)nc2cc(C(=O)Nc3cccc(C(F)(F)F)c3)c3c(c21)CC(C)(C)O3
fraction unbound at 5 h, 10 µM: 0.0028
//
Smiles code: CC1(C)Cc2c(c(C(=O)Nc3ccc(C(F)(F)F)cn3)cc3nc(Nc4c(Cl)cccc4Cl)[nH]c23)O1
fraction unbound at 5 h, 10 µM: 0.0016
//
Smiles code: Cc1cccc(Cl)c1Nc1nc2cc(C(=O)Nc3cc(C(F)(F)F)ccc3F)c3c(c2[nH]1)CC(C)(C)O3
fraction unbound at 5 h, 10 µM: 0.0004
//
Smiles code: CC1(C)Cc2c(c(C(=O)Nc3cc(C(F)F)ccc3F)cc3nc(Nc4c(F)cccc4Cl)[nH]c23)O1
fraction unbound at 5 h, 10 µM: 0.005
//
Smiles code: CC1(C)Cc2c(c(C(=O)Nc3ccc(F)c(C(F)(F)F)c3)cc3nc(Nc4c(F)cccc4Cl)[nH]c23)O1
fraction unbound at 5 h, 10 µM: 0.0136
//
Smiles code: Cc1cccc(Cl)c1Nc1nc2cc(C(=O)Nc3cc(C(F)F)ccc3F)c3c(c2[nH]1)CC(C)(C)O3
fraction unbound at 5 h, 10 µM: 0.0158

Please examine the following record next.
Problem: Please indicate fraction unbound at 5 h, 10 µM recorded for CC1(C)Cc2c(c(C(=O)Nc3cc(C(F)(F)F)ccc3F)cc3nc(Nc4c(F)cccc4Cl)[nH]c23)O1
Result: 0.0035
